Tested on: OVCAR-8 ovarian
Experiment: NCI-60 one-dose screen, 48 h (100 = growth as untreated, 0 = no growth, -100 = all killed)
Conditions: 10 µM unless noted
This is part of a sample that, as a whole, favours compounds with a hit. Of some 83,000 tested, about 20% had one in any assay.
// growth lookup, one value per entry
Answer in %, number only, no unit symbol.

Observe how each entry below is paired with its result.
compound	growth / %
CCCn1cnc2c(c1=N)C(c1ccc(F)cc1)c1sc3c(CC)cccc3c1O2 (stereo not drawn)	26.2
COc1cc(/C=C2\C(=O)Nc3ccccc32)ccc1OCc1ccc(F)cc1	102

Summary for this compound, CCOC(=O)C(=O)CC(=O)N1C(=S)NC(=O)C1CC(C)C (stereo not drawn) : growth is 101

Summary for this compound, CNC1CCc2c(sc(NC(=O)c3ccc(C(C)(C)C)cc3)c2C(N)=O)C1 (stereo not drawn) : growth is 74.6

Summary for this compound, `Nc1cc(F)ccc1NC(=O)c1ccc(NC(=O)C/C=C/c2cccnc2)cc1` : growth is 29.9

Summary for this compound, CCCn1cnc2c(c1=N)C(c1ccc(Cl)cc1)c1sc3c(CC)cccc3c1O2 (stereo not drawn) : growth is 20.5

Summary for this compound, `COc1ccc(/C=C/C(=O)c2cc(S(N)(=O)=O)c(OC)cc2OC)cc1` : growth is 93

Summary for this compound, `O=C(CN1CCN(c2cc(=O)n(-c3ccccc3)c3ccccc23)CC1)Nc1nc(-c2ccc(Cl)cc2)cs1` : growth is 59.4

Summary for this compound, `Cn1ccnc1C(=O)/C=C/c1ccc(NC(=O)c2c(F)c(F)c(F)c(F)c2F)cc1` : growth is 102

Summary for this compound, `O=C(c1ccc(O)cc1)[C@@H]1CN[C@@]2(C(=O)Nc3ccccc32)[C@H]1c1ccc(F)cc1` : growth is 99.2

Summary for this compound, `NS(=O)(=O)c1ccc(Nc2nc(N/N=C/c3ccccn3)nc(Nc3ccccc3)n2)cc1` : growth is 3.72

Summary for this compound, `CC(=O)c1cc(C(=O)c2ccc(Br)cc2)n2cc(C)cc(C)c12` : growth is 98.9

Summary for this compound, `CC1(C)CC[C@]2(C(=O)N3CCOCC3)CC[C@]3(C)C(=CC[C@@H]4[C@@]5(C)C/C(=C/c6ccco6)C(=O)C(C)(C)[C@@H]5CC[C@]43C)[C@@H]2C1` : growth is 91.3

Summary for this compound, `N#Cc1ccccc1Cn1c2nc(=N)c3ccccc3c-2nc2ccccc21` : growth is 66.4

Summary for this compound, CCC(CC)N1C(=O)/C(=c2\sc3n(c2=O)NC2C(N=3)N(CC)C(=O)N2CC)c2ccccc21 (stereo not drawn) : growth is 81.6

Summary for this compound, `N#Cc1cn(Cc2ccc(Cl)cc2Cl)c(C(=O)c2ccc(Br)cc2)c1N` : growth is 84.5

Summary for this compound, `O=C(Nc1ccc2c(ccn2Cc2ccccn2)c1)c1cnccn1` : growth is 105

Summary for this compound, `Cc1ccc(-c2cc3nc(C(Cl)Cl)nc(-c4cccs4)n3n2)cc1` : growth is 77.5

Summary for this compound, `O=S(=O)(Oc1ccc(-c2nnc(Nc3ccccc3)s2)cc1)C(F)(F)C(F)(F)C(F)(F)C(F)(F)C(F)(F)C(F)(F)F` : growth is 107

Summary for this compound, `COc1cccc(C(=O)Nc2cccc(C#Cc3cccc4[nH]nc(N)c34)c2)c1` : growth is 50.4

Summary for this compound, C#CC(=O)N(c1ccc(OC)cc1OC)C(C(=O)NCC(=O)OCC)c1cccs1 (stereo not drawn) : growth is 46.6

Summary for this compound, `Cn1cc(-c2cc(N)n3nc(-c4cn(C)c5ccccc45)cc3n2)c2ccccc21` : growth is 85.4

Summary for this compound, `Cc1cc(C)n(C(=O)c2sc(=S)n(-c3ccccc3)c2N=Nc2c(N)n[nH]c2N)n1` : growth is 101

Summary for this compound, `CCc1cccc(NC(=O)CNc2cc(S(=O)(=O)N(C)C)cc(C)c2C)c1` : growth is 97.7

Summary for this compound, `CNC(=O)c1cc(N2CCc3cc(NC(=O)Nc4ccc(Cl)c(C(F)(F)F)c4)ccc32)ccn1` : growth is 62.8

Summary for this compound, `O=C(NNc1nc2cc(F)ccc2n2c(CO)ccc12)c1cnccn1` : growth is 10.9

Summary for this compound, `ClC(Cl)c1nc(-c2ccco2)n2nc(-c3ccccc3)cc2n1` : growth is 31.7

Summary for this compound, `CCN1CCN(Cc2cn(-c3ccc(S(N)(=O)=O)cc3)nn2)CC1` : growth is 102

Summary for this compound, `CCn1c2ccccc2c2cc(-n3nncc3-c3ccccc3)ccc21` : growth is 27

Summary for this compound, `O=C(NNc1nc2cc(F)cc(F)c2n2cccc12)c1cnccn1` : growth is 12.7
